We begin with a simple list: items and their reported IC50.
- assay-target: UniProt:P42226
- Sequence (P42226 1-847): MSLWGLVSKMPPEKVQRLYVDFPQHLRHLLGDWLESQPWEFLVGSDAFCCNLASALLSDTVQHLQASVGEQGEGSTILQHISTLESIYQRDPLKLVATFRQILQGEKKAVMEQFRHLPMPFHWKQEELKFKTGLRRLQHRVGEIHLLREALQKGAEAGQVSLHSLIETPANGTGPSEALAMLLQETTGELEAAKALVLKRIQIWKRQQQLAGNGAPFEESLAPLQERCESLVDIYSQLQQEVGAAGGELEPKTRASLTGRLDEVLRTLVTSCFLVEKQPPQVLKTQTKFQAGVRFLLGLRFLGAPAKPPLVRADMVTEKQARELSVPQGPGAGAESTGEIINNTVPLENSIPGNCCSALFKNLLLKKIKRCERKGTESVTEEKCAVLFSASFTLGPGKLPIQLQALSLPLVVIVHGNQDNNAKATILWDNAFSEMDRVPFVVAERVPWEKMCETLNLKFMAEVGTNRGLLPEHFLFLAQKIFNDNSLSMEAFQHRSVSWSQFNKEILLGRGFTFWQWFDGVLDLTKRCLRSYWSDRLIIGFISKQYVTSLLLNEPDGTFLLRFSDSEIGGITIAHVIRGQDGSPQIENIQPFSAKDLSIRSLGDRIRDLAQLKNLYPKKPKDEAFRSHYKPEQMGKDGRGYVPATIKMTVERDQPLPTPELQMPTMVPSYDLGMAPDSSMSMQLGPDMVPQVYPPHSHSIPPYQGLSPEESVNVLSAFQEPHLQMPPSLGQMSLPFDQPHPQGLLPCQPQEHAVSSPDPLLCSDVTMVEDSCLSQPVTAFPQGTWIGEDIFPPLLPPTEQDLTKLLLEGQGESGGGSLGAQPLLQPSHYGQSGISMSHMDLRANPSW
- assay-text: MSD-pSTAT-PBMC Assay (pSTAT6, IL-4 stimulated)
- Format: cell-based
- experimental-parameters: compound 3 hrs, then 1 ng/mL IL-4 10 min, pY641-STAT6, read-out: pSTAT6 IC50

O=C1CCC(c2ccc(OCCCCCn3ccc([C@@H]4CN(C(=O)[C@@H]5CC[C@@H]6CCCC[C@H](NC(=O)c7cc8cc(C(F)(F)P(=O)(O)O)ccc8s7)C(=O)N65)C5(CC5)C4)cc3=O)cc2)C(=O)N1 (some centres unmarked) [Compound 17]; 1000 to 3000 nM
CCCC(=O)SCCOP(=O)(OCCSC(=O)CCC)C(F)(F)c1ccc2sc(C(=O)N[C@H]3CCCC[C@H]4CC[C@@H](C(=O)N5C[C@@H](c6ccn(CCOCCOCCOc7cccc8c7CN(C7CCC(=O)NC7=O)C8=O)c(=O)c6)CC56CC6)N4C3=O)cc2c1 (some centres unmarked) [Compound 26]; 100 to 1000 nM
CCCC(=O)SCCOP(=O)(OCCSC(=O)CCC)C(F)(F)c1ccc2sc(C(=O)N[C@H]3CCCC[C@H]4CC[C@@H](C(=O)N5C[C@@H](C#N)[C@H](c6cccc(OCCCCCC#Cc7cccc8c7CN(C7CCC(=O)NC7=O)C8=O)c6)C5)N4C3=O)cc2c1 (relative stereo) [Compound 14]; 100 to 1000 nM
CCCC(=O)SCCOP(=O)(OCCSC(=O)CCC)C(F)(F)c1ccc2sc(C(=O)N[C@H]3CCCC[C@H]4CC[C@@H](C(=O)N5C[C@@H](c6ccn(CCCCCCC#Cc7cccc8c7CN(C7CCC(=O)NC7=O)C8=O)c(=O)c6)CC56CC6)N4C3=O)cc2c1 (some centres unmarked) [Compound 6]; < 100 nM
CCCC(=O)SCCOP(=O)(OCCSC(=O)CCC)C(F)(F)c1ccc2sc(C(=O)NC3CCCCC4CCC(C(=O)N5CC(C#N)C(c6cccc(OCCOCCOc7cccc8c7CN(C7CCC(=O)NC7=O)C8=O)c6)C5)N4C3=O)cc2c1 (centres unmarked) [Compound 15]; < 100 nM
O=C1CCC(N2Cc3c(C#CCCCCCCn4ccc([C@@H]5CN(C(=O)[C@@H]6CC[C@@H]7CCCC[C@H](NC(=O)c8cc9cc(C(F)(F)P(=O)(O)O)ccc9s8)C(=O)N76)C6(CC6)C5)cc4=O)cccc3C2=O)C(=O)N1 (some centres unmarked) [Compound 5]; 100 to 1000 nM

Documented IC50 of N#C[C@@H]1CN(C(=O)[C@@H]2CC[C@@H]3CCCC[C@H](NC(=O)c4cc5cc(C(F)(F)P(=O)(O)O)ccc5s4)C(=O)N32)C[C@H]1c1cccc(OCCCCOc2ccc(C3CCC(=O)NC3=O)cc2)c1 (mixture of isomers) [Compound 3] : 1000 to 3000 nM

Entry under test: N#CC1CN(C(=O)C2CCC3CCCCC(NC(=O)c4cc5cc(C(F)(F)P(=O)(O)O)ccc5s4)C(=O)N32)CC1c1cccc(N2CCN(c3ccc4c(c3)[nH]c(=O)n4C3CCC(=O)NC3=O)CC2)c1 (centres unmarked) [Compound 22] . Its IC50 was 1000 to 3000 nM

---

The entries below come with measured pIC50 values attached.
- assay-target: STAT6 (Homo sapiens, UniProt P42226)
- Construct: Recombinant STAT6 protein (STAT6(W123-T658))
- assay-text: STAT6 Fluorescence Polarization (FP) Assay
- Procedure: An FP assay was developed to determine IC50 values for test substances. […] Reaction components were mixed, and FP was measured after 45-minute incubation at room temperature using a Tecan Spark multimode plate reader. FP signal (mP) was plotted against the log concentration of the test substances and IC50 values were calculated by nonlinear regression analysis using GraphPad Prism software. […]
pIC50: −log10 of the molar value.

Cc1ncsc1-c1ccc([C@H](C)NC(=O)[C@@H]2C[C@@H](O)CN2C(=O)[C@@H](NC(=O)COCCOCC(=O)NC2(c3ccccn3)CN(C(=O)[C@@H]3CC[C@H]4CCCC[C@H](NC(=O)c5cc6cc(C(F)(F)P(=O)(O)O)ccc6s5)C(=O)N43)C2)C(C)(C)C)cc1; 4.52 to 5.52

Lab note: measured pIC50 of Cn1c(=O)n(C2CCC(=O)NC2=O)c2ccc(C#CCCC3CCN(c4ccncc4C4CN(C(=O)[C@@H]5CC[C@@H]6CCC[C@H](NC(=O)c7cc8cc(C(F)(F)P(=O)(O)O)ccc8s7)C(=O)N65)C4)CC3)cc21 (stereo partly shown) was 5.52 to 6.52

O=C1CCC(N2Cc3c(OCCOCCOCCn4ccc([C@@H]5CN(C(=O)[C@@H]6CC[C@@H]7CCCC[C@H](NC(=O)c8cc9cc(C(F)(F)P(=O)(O)O)ccc9s8)C(=O)N76)C6(CC6)C5)cc4=O)cccc3C2=O)C(=O)N1 (stereo partly shown) has a reported pIC50 of 5.52 to 6.52

pIC50 for N#CC1CN(C(=O)C2CCC3CCCCC(NC(=O)c4cc5cc(C(F)(F)P(=O)(O)O)ccc5s4)C(=O)N32)CC1c1cccc(OCCOCCOc2cccc3c2CN(C2CCC(=O)NC2=O)C3=O)c1 (stereo not shown) is 5.52 to 6.52

---

- assay-target: pSTAT6 (Homo sapiens, UniProt P42226)
- assay-text: MSD-pSTAT-PBMC Assay (pSTAT6, IL-4 stimulated)
- Format: cell-based
- experimental-parameters: compound 3 hrs, then 1 ng/mL IL-4 10 min, pY641-STAT6, read-out: pSTAT6 IC50
pIC50: −log10 of the molar value.
property-measured: pIC50

O=C1CCC(c2ccc(OCCCCCOc3cc([C@@H]4CN(C(=O)[C@@H]5CC[C@@H]6CCCC[C@H](NC(=O)c7cc8cc(C(F)(F)P(=O)(O)O)ccc8s7)C(=O)N65)C5(CC5)C4)ccn3)cc2)C(=O)N1 (some centres unmarked); < 5.52

Query molecule follows.
Notebook: CCCC(=O)SCCOP(=O)(OCCSC(=O)CCC)C(F)(F)c1ccc2sc(C(=O)NC3CCCCC4CCC(C(=O)N5CC(C#N)C(c6cccc(OCCCCOc7ccc(C8CCC(=O)NC8=O)cc7)c6)C5)N4C3=O)cc2c1 (centres unmarked) , pIC50 read as > 7.00

---

Recorded IC50 values for a group of compounds are listed next.
- assay-target: STAT6 (Homo sapiens)
- Construct: Recombinant STAT6 protein (STAT6(W123-T658))
- Sequence (P42226 123-658): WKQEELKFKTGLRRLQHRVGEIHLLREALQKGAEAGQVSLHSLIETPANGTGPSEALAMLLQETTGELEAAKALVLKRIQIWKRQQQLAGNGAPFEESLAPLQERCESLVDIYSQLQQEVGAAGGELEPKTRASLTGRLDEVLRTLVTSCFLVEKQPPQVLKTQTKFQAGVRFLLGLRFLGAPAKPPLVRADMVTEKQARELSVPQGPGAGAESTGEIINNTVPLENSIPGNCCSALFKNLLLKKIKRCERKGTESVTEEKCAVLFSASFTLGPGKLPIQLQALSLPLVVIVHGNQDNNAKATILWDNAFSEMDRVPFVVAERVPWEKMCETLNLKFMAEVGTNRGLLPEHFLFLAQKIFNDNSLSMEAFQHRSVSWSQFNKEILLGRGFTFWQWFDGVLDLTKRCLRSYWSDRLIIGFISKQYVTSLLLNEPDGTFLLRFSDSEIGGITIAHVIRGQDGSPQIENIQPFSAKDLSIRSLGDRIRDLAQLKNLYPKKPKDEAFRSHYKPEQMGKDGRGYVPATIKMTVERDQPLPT
- assay-text: STAT6 Fluorescence Polarization (FP) Assay

Cc1ncsc1-c1ccc(CNC(=O)[C@@H]2C[C@@H](O)CN2C(=O)[C@@H](NCCCCOc2ccncc2C2CN(C(=O)[C@@H]3CC[C@@H]4CCC[C@H](NC(=O)c5cc6cc(C(F)(F)P(=O)(O)O)ccc6s5)C(=O)N43)C2)C(C)(C)C)cc1; 3 to 30 µM
O=C1CCC(c2ccc(OCCOc3ccncc3C3CN(C(=O)[C@@H]4CC[C@@H]5CCC[C@H](NC(=O)c6cc7cc(C(F)(F)P(=O)(O)O)ccc7s6)C(=O)N54)C3)cc2)C(=O)N1 (stereo partly shown); 3 to 30 µM
N#C[C@@H]1CN(C(=O)[C@@H]2CC[C@@H]3CCCC[C@H](NC(=O)c4cc5cc(C(F)(F)P(=O)(O)O)ccc5s4)C(=O)N32)C[C@H]1c1cccc(OCCCCOc2ccc(C3CCC(=O)NC3=O)cc2)c1 (mixture of isomers); < 0.3 µM

Let us examine a further case.
GET /value?item= Cn1c(=O)n(C2CCC(=O)NC2=O)c2ccc(C#CCCC3CCN(c4ccncc4C4CN(C(=O)[C@@H]5CC[C@@H]6CCC[C@H](NC(=O)c7cc8cc([C@H](F)P(=O)(O)O)ccc8s7)C(=O)N65)C4)CC3)cc21 (stereo partly shown) &field=IC50 returns 3 to 30 µM
